- System: ATP;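 also: ATP exposure 15 min at 22 °C before imaging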
- protocol-description: switch fluorescence ratio, 500 uM ATP over buffer (Cy3 cluster intensity, sum of 5 cycles each) (fold (ratio)); higher = stronger signal-on switching upon ATP binding; sequences stand for … in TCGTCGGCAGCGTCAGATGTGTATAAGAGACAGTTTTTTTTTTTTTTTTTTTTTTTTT…TC
- conditions-used: aptamer strand: ATP DNA aptamer (quencher-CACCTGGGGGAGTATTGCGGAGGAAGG + anchor), 100 nM annealed; ATP concentration: 500 uM
Form field: switch fluorescence ratio (one value per entry).

{"macromolecule-sequence": "AAATGCTAGC", "switch fluorescence ratio": 1.01}
{"macromolecule-sequence": "TTTATCAGAC", "switch fluorescence ratio": 1.07}
{"macromolecule-sequence": "TACGTTTTCT", "switch fluorescence ratio": 1.02}
{"macromolecule-sequence": "TGTGTTTGTT", "switch fluorescence ratio": 0.998}
{"macromolecule-sequence": "CGTTTAGTCA", "switch fluorescence ratio": 1.01}
{"macromolecule-sequence": "ATGGTGGGCT", "switch fluorescence ratio": 0.981}
{"macromolecule-sequence": "GGTGGCGCTA", "switch fluorescence ratio": 1.01}
{"macromolecule-sequence": "CGGGGCTTGT", "switch fluorescence ratio": 0.985}
{"macromolecule-sequence": "TCGGGTTTGT", "switch fluorescence ratio": 1.01}
{"macromolecule-sequence": "TTAGACGGC", "switch fluorescence ratio": 0.978}
{"macromolecule-sequence": "GATTGACGGC", "switch fluorescence ratio": 1}
{"macromolecule-sequence": "TAGTTGTCCC", "switch fluorescence ratio": 1.02}
{"macromolecule-sequence": "TAAGAAGTCT", "switch fluorescence ratio": 1.04}
{"macromolecule-sequence": "ATCGGGACGA", "switch fluorescence ratio": 0.955}
{"macromolecule-sequence": "ATAAGGTCGT", "switch fluorescence ratio": 1.02}
{"macromolecule-sequence": "CAGTTACGAT", "switch fluorescence ratio": 1.03}
{"macromolecule-sequence": "AGGCGCTCTG", "switch fluorescence ratio": 0.99}
{"macromolecule-sequence": "GAATTGTACC", "switch fluorescence ratio": 1.03}
{"macromolecule-sequence": "GTAGTTAGGG", "switch fluorescence ratio": 1.02}
{"macromolecule-sequence": "TGAGGGGTCA", "switch fluorescence ratio": 1}
{"macromolecule-sequence": "CGACAAGAGA", "switch fluorescence ratio": 1.47}
